# System: GM3 expression on the cell surface, B16 mouse melanoma cells
# assay summary: cell based phenotypic assay, cell surface GM3 by antibody mediated immunofluorescence, B16 (GM3 B16 IC50)
# conditions used: Mus musculus, B16 mouse melanoma cells; 50% inhibition of GM3 expression on the cell surface; read-out: GM3 B16 IC50
Lab note: cut-off is 300 nM. Strictly less in IC50 is label 1. Exactly 300 nM or more is label 0.

IC50 under 300 nM? Item: CC1(NC(=O)C2CCN(c3nccc(-c4cc(F)cc(F)c4)n3)CC2)CCN2CCC1CC2 (stereo not drawn) [Example 65] label 1

IC50 under 300 nM? Item: CC1(NC(=O)C2(O)CCN(c3nccc(-c4ccc(F)cc4)n3)CC2)CCN2CCC1CC2 (stereo not drawn) [Example 99] label 1

IC50 under 300 nM? Item: COCc1ccc(-c2nc(N3CCN(C(=O)NC4(C)CCN5CCC4CC5)CC3C(C)C)ncc2F)cc1 (stereo not drawn) [Example 148] label 0

IC50 under 300 nM? Item: CCC1(NC(=O)NC(C)(C)C#Cc2ccc(COC)cc2)CN2CCC1CC2 (stereo not drawn) [Example 327] label 0

IC50 under 300 nM? Item: CCC1(NC(=O)N2CCN(c3cccc(-c4ccccc4)c3)CC2)CN2CCC1CC2 (stereo not drawn) [Example 21] label 1

IC50 under 300 nM? Item: CC1(NC(=O)N2CCC(c3ccc(-c4ccccc4)cc3)CC2)CCN2CCC1CC2 (stereo not drawn) [Example 53] label 0

IC50 under 300 nM? Item: COCCOCc1ccc(-c2ccc(C(C)(C)NC(=O)NC3(C)CCN4CCC3CC4)cc2)cc1 (stereo not drawn) [Example 201] label 1

IC50 under 300 nM? Item: O=C(OC1CCN2CCC1CC2)N1CCN(c2cccc(-c3ccccc3)c2)CC1 (stereo not drawn) [Example 19] label 0

Value source: patent US12060349B2
